Multiple publications report log10 IC50 for Histone deacetylase 1 (Homo sapiens); what follows is a combined list.
Parameter value (number): base-10 log of IC50 in nM.

smiles_input=O=C(NO)c1ccc(CNC(=O)[C@@H]2Cc3c([nH]c4ccccc34)[C@@H](c3ccc(Cl)cc3)N2)cc1 tgt="Histone deacetylase 1 (Homo sapiens)" assay_value=2.89

Query block: Look up log10 IC50: Nc1ccccc1NC(=O)c1ccc(OCCCOc2ccc3c(OCCn4nc(-c5cn[nH]c5)ccc4=O)ccnc3c2)cn1
Result block: 1.58

Query block: What about CCCNNC(=O)CCCCCCn1c2cc3c(cc2c2ncc4ccccc4c21)OCO3 ?
Result block: 2.11

Query block: Moving on to CCCNNC(=O)CCCCCCCn1c2cc3c(cc2c2[nH]c(=O)c4ccccc4c21)OCO3
Result block: 3.24

Query block: Try the molecule COc1ccc(/C=C2\CC(=O)N(CCCCCCC(=O)NO)C2=O)cc1OC
Result block: 1.39

Query block: Ok, now O=C(CCCCCCN1C(=O)C/C(=C\c2ccccc2)C1=O)NO
Result block: 1.11

Query block: Next entry: CN(C)c1ccc(/C=C2\CC(=O)N(CCCCCCC(=O)NO)C2=O)cc1
Result block: 1.43

Query block: Now consider O=C(NO)c1ccc(CNC(=O)[C@@H]2Cc3c([nH]c4ccccc34)[C@@H](c3ccc4c(c3)OCO4)N2)cc1 and answer again.
Result block: 2.33

###

Across several studies, molecules have been characterized by their IC50 on Histone deacetylase 1 (Homo sapiens); a selection follows.
Note: unit nM is implicit; provide only the numeric part.

smiles_input=Nc1ccccc1NC(=O)c1ccc(NC(=O)c2n[nH]cc2NC(=O)c2c(Cl)cccc2Cl)cc1 reported_metric=IC50 unit_symbol=nM assay_value=98
smiles_input=COc1ccc(-c2csc(C(=O)NOCCCCCC(=O)NO)n2)cc1 reported_metric=IC50 unit_symbol=nM assay_value=40
smiles_input=O=C(CCCCCCCN1C(=O)C/C(=C\c2ccccc2)C1=O)NO reported_metric=IC50 unit_symbol=nM assay_value=25.2

// next item, IC50 requested
Query block: What does the data say about its IC50? Entry: CCn1c(C)nc2c(F)cc(-c3nc(Nc4ccc(CNC(=O)CCCCCCC(=O)NO)cc4)ncc3F)cc21
Result block: 26

###

Below are pIC50 measurements against Histone deacetylase 1 (Homo sapiens, UniProt Q13547) drawn from the literature.
Sequence (Q13547 whole entry): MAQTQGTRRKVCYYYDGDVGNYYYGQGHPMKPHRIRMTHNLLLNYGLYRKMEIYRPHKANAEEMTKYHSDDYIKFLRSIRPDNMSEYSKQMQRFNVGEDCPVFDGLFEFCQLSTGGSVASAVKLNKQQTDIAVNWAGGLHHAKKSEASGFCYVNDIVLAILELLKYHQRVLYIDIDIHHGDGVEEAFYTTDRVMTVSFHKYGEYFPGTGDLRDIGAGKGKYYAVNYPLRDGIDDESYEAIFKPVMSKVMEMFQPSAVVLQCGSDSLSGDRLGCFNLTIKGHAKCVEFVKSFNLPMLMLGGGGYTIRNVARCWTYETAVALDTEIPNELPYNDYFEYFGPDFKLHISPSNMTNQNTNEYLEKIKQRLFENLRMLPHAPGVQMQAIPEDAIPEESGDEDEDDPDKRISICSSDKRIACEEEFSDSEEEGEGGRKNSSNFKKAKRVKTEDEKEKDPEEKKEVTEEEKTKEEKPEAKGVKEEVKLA
Remember, pIC50 is on a log scale: it is -log10 of the molar concentration.

Query block: Which pIC50 is reported for this molecule? O=C(CCCCCCN1C(=O)C/C(=C\c2ccc(Cl)cc2)C1=O)NO
Result block: 7.63

Query block: What about this molecule? O=C(CCCN1C(=O)C/C(=C\c2ccccc2)C1=O)NO
Result block: 6.74

Query block: Now try O=C(NO)c1ccc(CN2C(=O)C/C(=C\c3ccccc3)C2=O)cc1 .
Result block: 7.48

Query block: Consider next the molecule O=C(CCCCCn1c(=O)c(-c2ccc(Cl)cc2Cl)cc2cnc(NC3CC3)nc21)NO in the same way.
Result block: 6.63

Query block: Now consider O=C(CCCCN1C(=O)C/C(=C\c2ccccc2)C1=O)NO and answer again.
Result block: 6.87

Query block: Now try Nc1ccccc1NC(=O)c1ccc(CNC(=O)OCc2ccccc2)cc1 .
Result block: 6.26

###

Before we begin, note that these pIC50 values for Histone deacetylase 1 (Homo sapiens) originate from several publications.
The scale used: pIC50 is minus the common logarithm of the concentration in molar units.

Look over these answered cases.
smiles_input=Nc1cc(F)ccc1NC(=O)CCCCCN1C(=O)C/C(=C\c2ccccc2)C1=O reported_metric=pIC50 assay_value=6.98
smiles_input=COc1ccc(Br)cc1/C=C1\CC(=O)N(CCCCCCC(=O)NO)C1=O reported_metric=pIC50 assay_value=7.11
smiles_input=O=C(CCCCCN1C(=O)C/C(=C\c2ccccc2)C1=O)NO reported_metric=pIC50 assay_value=7.49
smiles_input=O=C(NO)c1ccc(CNC(=O)[C@@H]2Cc3c([nH]c4ccccc34)[C@@H](C3CC3)N2)cc1 reported_metric=pIC50 assay_value=6.93
smiles_input=CCCNNC(=O)CCCCn1c2cc3c(cc2c2[nH]c(=O)c4ccccc4c21)OCO3 reported_metric=pIC50 assay_value=6.19
smiles_input=O=C(NO)c1ccc(CNC(=O)[C@@H]2Cc3c([nH]c4ccccc34)[C@@H](c3ccc(Cl)cc3)N2CC2CC2)cc1 reported_metric=pIC50 assay_value=5.89

Query block: I would be grateful if you could share the reported pIC50 for O=C(CCCCCCN1C(=O)C/C(=C\c2cccc(Br)c2)C1=O)NO .
Result block: 7.72
